MEASUREMENT TARGET: ATM (Homo sapiens)
Construct: detecting phosphorylation of Chk2 in a human non-small cell lung cancer cell line NCI-H460 (ATCC company); host or cells: NCI-H460 human non-small cell lung cancer cells
ASSAY PROCEDURE: ATM inhibition test (phosphorylation of Chk2 generated by ionizing radiation, AlphaScreen SureFire)
Format: cell-based
DETAILS: phosphorylated Chk2 in NCI-H460 cells, ionizing radiation 8Gy, 1 hour after test compound treatment; read-out: ATM inhibitory activity
# IC50 annotations
ENDPOINT: IC50

MOLECULE: COc1ccccc1CCN1CCC(Nc2ccc3c(c2)Cc2cccc(-c4cc(N5CCOCC5)cc(=O)[nH]4)c2O3)CC1 [Example 2-30-10]
MEASUREMENT: 0.5 to 2 µM
//
MOLECULE: Cc1cnc(C(CN(C)C)Nc2ccc3c(c2)Sc2cccc(-c4cc(N5CCOCC5)cc(=O)[nH]4)c2S3)cn1 (stereo not shown) [Example 1-32]
MEASUREMENT: 0.1 to 0.5 µM
//
MOLECULE: Cc1cnc(CNc2ccc3c(c2)Cc2cccc(-c4cc(N5CCOCC5)cc(=O)[nH]4)c2O3)cn1 [Example 2-14-76]
MEASUREMENT: 0.1 to 0.5 µM
//
MOLECULE: CN(C)CC(CN1CCOCC1)Nc1ccc2c(c1)Sc1cccc(-c3cc(N4CCOCC4)cc(=O)[nH]3)c1S2 (stereo not shown) [Example 9-3]
MEASUREMENT: 0.5 to 2 µM

====

MEASUREMENT TARGET: ATM (Homo sapiens, UniProt Q13315)
Construct: detecting phosphorylation of Chk2 in a human non-small cell lung cancer cell line NCI-H460 (ATCC company); host or cells: NCI-H460 human non-small cell lung cancer cells
Sequence (Q13315 whole entry): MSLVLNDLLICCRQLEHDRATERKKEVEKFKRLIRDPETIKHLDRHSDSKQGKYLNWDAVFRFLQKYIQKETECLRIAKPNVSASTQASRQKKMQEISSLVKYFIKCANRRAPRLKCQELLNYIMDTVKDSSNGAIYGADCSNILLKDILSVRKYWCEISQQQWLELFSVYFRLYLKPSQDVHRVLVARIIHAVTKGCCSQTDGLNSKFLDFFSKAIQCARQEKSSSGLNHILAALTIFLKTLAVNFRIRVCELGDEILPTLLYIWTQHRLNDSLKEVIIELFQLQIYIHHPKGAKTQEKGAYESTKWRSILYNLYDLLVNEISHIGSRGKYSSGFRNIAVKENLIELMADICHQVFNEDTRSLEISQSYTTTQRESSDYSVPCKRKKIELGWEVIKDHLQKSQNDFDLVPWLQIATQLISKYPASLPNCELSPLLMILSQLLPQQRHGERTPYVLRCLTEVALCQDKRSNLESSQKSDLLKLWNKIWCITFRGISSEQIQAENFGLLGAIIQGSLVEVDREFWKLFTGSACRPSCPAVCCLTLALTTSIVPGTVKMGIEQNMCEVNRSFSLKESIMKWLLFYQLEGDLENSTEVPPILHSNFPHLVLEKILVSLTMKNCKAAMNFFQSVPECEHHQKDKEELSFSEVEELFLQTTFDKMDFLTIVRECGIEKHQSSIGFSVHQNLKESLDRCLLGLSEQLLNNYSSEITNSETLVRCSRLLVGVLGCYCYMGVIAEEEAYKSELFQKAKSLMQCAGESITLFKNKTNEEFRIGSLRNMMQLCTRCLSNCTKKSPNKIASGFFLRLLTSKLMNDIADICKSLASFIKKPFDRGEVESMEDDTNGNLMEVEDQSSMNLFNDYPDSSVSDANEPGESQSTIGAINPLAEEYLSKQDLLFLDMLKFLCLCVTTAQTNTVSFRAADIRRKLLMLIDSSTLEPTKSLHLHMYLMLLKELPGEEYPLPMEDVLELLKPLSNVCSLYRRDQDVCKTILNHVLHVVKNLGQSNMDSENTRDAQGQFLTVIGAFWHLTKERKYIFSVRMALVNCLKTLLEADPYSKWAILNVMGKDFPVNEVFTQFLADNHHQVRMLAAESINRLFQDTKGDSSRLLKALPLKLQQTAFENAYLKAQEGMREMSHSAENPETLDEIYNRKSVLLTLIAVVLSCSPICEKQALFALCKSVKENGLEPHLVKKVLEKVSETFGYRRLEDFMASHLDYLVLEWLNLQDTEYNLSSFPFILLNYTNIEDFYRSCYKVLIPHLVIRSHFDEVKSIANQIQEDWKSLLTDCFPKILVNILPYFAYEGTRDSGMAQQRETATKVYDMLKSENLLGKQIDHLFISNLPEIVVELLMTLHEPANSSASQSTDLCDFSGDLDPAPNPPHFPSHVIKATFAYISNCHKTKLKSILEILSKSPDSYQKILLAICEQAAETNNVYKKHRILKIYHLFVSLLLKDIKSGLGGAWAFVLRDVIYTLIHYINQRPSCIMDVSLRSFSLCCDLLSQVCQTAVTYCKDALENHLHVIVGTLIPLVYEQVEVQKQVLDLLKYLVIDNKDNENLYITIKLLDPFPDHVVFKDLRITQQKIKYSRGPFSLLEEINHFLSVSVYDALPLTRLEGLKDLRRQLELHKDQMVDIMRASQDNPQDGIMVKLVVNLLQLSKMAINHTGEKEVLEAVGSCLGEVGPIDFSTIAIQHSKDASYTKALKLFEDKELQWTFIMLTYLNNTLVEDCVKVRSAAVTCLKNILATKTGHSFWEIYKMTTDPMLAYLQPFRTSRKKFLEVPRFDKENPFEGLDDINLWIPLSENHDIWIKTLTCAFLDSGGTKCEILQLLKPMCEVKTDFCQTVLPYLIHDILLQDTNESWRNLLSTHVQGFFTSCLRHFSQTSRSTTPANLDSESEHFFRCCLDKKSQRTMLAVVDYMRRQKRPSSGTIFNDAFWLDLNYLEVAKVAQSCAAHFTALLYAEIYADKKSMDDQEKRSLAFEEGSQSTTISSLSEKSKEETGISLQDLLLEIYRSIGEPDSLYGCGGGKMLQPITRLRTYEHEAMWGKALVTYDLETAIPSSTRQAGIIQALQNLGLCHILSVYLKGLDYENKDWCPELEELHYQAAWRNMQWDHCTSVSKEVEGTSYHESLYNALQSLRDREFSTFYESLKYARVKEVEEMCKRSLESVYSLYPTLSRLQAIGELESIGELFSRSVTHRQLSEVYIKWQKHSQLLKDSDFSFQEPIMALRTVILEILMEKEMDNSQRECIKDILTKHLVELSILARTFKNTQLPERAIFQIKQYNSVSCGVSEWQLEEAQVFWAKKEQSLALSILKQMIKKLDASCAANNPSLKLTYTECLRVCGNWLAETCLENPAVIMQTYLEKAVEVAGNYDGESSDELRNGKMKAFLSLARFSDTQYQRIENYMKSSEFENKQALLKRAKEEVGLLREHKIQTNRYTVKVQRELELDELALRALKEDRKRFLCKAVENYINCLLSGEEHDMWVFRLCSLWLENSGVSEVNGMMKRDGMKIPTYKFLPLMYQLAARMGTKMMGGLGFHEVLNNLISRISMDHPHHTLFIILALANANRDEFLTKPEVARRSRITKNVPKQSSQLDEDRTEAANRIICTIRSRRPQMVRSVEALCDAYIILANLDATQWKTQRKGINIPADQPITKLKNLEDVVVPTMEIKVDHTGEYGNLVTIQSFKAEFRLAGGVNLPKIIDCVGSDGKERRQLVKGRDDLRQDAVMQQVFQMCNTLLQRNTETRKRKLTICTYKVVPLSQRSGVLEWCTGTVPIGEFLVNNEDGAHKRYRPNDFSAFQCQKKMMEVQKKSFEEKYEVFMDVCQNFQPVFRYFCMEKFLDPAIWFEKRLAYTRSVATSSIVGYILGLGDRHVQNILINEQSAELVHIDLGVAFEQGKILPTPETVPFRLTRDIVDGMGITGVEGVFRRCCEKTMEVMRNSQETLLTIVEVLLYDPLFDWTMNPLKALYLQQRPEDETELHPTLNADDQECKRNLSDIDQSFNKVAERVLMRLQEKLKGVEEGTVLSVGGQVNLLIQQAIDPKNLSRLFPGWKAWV
ASSAY PROCEDURE: ATM inhibition test (phosphorylation of Chk2 generated by ionizing radiation, AlphaScreen SureFire)
Format: cell-based
DETAILS: phosphorylated Chk2 in NCI-H460 cells, ionizing radiation 8Gy, 1 hour after test compound treatment; read-out: ATM inhibitory activity
Experimental: ATM inhibitory effects of a test compound were measured by detecting phosphorylation of Chk2 in a human non-small cell lung cancer cell line NCI-H460 (ATCC company). The level of phosphorylated Chk2 generated by an ionizing radiation was measured using AlphaScreen SureFire (TGR Biosciences). The cells were seeded by 40000 cells per well in 96-well CellBIND® plates (Corning International Inc.), and incubated at 37° C. overnight in 5% CO2. […]

MOLECULE: O=c1cc(N2CCOCC2)cc(-c2cccc3c2Oc2ccc(NCc4ccco4)cc2C3)[nH]1
IC50: 100 to 500 nM
--
MOLECULE: COc1cnc(C(C)Nc2ccc3c(c2)Sc2cccc(-c4cc(N5CCOCC5)cc(=O)[nH]4)c2S3)cn1 (stereo not shown)
IC50: < 100 nM
--
MOLECULE: O=c1cc(N2CCOCC2)cc(-c2cccc3c2Sc2ccc(NCCCN4CCOCC4)cc2S3)[nH]1
IC50: < 100 nM
--
MOLECULE: O=c1cc(N2CCOCC2)cc(-c2cccc3c2Sc2ccc(NC4CCN(Cc5cccnc5)CC4)cc2S3)[nH]1
IC50: < 100 nM
--
MOLECULE: CC(Nc1ccc2c(c1)Cc1cccc(-c3cc(N4CCOCC4)cc(=O)[nH]3)c1O2)c1cccnc1 (single isomer, unassigned) [Example 2-36-1]
IC50: 500 to 2000 nM
--
MOLECULE: N#Cc1cccc(CNc2ccc3c(c2)Cc2cccc(-c4cc(N5CCOCC5)cc(=O)[nH]4)c2O3)c1
IC50: 100 to 500 nM
--
MOLECULE: Cc1ccncc1CNc1ccc2c(c1)Cc1cccc(-c3cc(N4CCOCC4)cc(=O)[nH]3)c1O2
IC50: 100 to 500 nM
--
MOLECULE: Cc1ccccc1CCN1CCC(Nc2ccc3c(c2)Cc2cccc(-c4cc(N5CCOCC5)cc(=O)[nH]4)c2O3)CC1
IC50: 100 to 500 nM
--
MOLECULE: COc1ncc(C(C)Nc2ccc3c(c2)Sc2cccc(-c4cc(N5CCOCC5)cc(=O)[nH]4)c2S3)cn1 (stereo not shown)
IC50: 100 to 500 nM
--
MOLECULE: O=c1cc(N2CCOCC2)cc(-c2cccc3c2Sc2ccc(NC4CCCN(C5CCCC5)C4)cc2S3)[nH]1 (stereo not shown)
IC50: 100 to 500 nM
--
MOLECULE: O=c1cc(N2CCOCC2)cc(-c2cccc3c2Sc2ccc(NCc4cc(C5CC5)ccn4)cc2S3)[nH]1
IC50: < 100 nM
--
MOLECULE: CN(C)c1cnc(CNc2ccc3c(c2)Sc2cccc(-c4cc(N5CCOCC5)cc(=O)[nH]4)c2O3)cn1
IC50: < 100 nM
--
MOLECULE: Cc1cccc(C(CCN2CCCCC2)Nc2ccc3c(c2)Sc2cccc(-c4cc(N5CCOCC5)cc(=O)[nH]4)c2S3)n1 (stereo not shown)
IC50: < 100 nM
--
MOLECULE: CC(Nc1ccc2c(c1)Cc1cccc(-c3cc(N4CCOCC4)cc(=O)[nH]3)c1O2)c1ccnc(C#N)n1 (stereo not shown)
IC50: 100 to 500 nM
--
MOLECULE: O=c1cc(N2CCOCC2)cc(-c2cccc3c2Sc2ccc(NC4CCCN(C5COC5)C4)cc2S3)[nH]1 (stereo not shown)
IC50: 100 to 500 nM
--
MOLECULE: Nc1ccc2c(c1)Sc1cccc(-c3cc(N4CCOCC4)cc(=O)[nH]3)c1S2
IC50: < 100 nM
--
MOLECULE: Cc1ccnc(CNc2ccc3c(c2)Cc2ccc(F)c(-c4cc(N5CCOCC5)cc(=O)[nH]4)c2O3)c1
IC50: < 100 nM
--
MOLECULE: N#CCC(CN1CCOCC1)Nc1ccc2c(c1)Sc1cccc(-c3cc(N4CCOCC4)cc(=O)[nH]3)c1S2 (stereo not shown)
IC50: 100 to 500 nM
--
MOLECULE: CC(C)N1CCC(Nc2ccc3c(c2)Sc2cccc(-c4cc(N5CCOCC5)cc(=O)[nH]4)c2S3)CC1
IC50: 100 to 500 nM
--
MOLECULE: COCCN1CCOC(C(Nc2ccc3c(c2)Sc2cccc(-c4cc(N5CCOCC5)cc(=O)[nH]4)c2S3)c2ccc(C)cn2)C1 (single isomer, unassigned) [Example 1-56-9]
IC50: < 100 nM
--
MOLECULE: CC(CN1CCN(c2ccccn2)CC1)Nc1ccc2c(c1)Sc1cccc(-c3cc(N4CCOCC4)cc(=O)[nH]3)c1S2 (stereo not shown)
IC50: < 100 nM
--
MOLECULE: CCCCN1CCC(Nc2ccc3c(c2)Cc2cccc(-c4cc(N5CCOCC5)cc(=O)[nH]4)c2O3)C1 (stereo not shown)
IC50: 100 to 500 nM
--
MOLECULE: Nc1ccc2c(c1)Cc1ccc(F)c(-c3cc(N4CCOCC4)cc(=O)[nH]3)c1O2
IC50: 100 to 500 nM
--
MOLECULE: O=c1cc(N2CCOCC2)cc(-c2cccc3c2Sc2ccc(NCc4ccno4)cc2C3)[nH]1
IC50: 500 to 2000 nM
--
MOLECULE: O=c1cc(N2CCOCC2)cc(-c2cccc3c2Oc2ccc(NC4CCN(CCc5ccccc5Cl)CC4)cc2C3)[nH]1
IC50: 100 to 500 nM
--
MOLECULE: CC(CN1CCCC(O)C1)Nc1ccc2c(c1)Sc1cccc(-c3cc(N4CCOCC4)cc(=O)[nH]3)c1S2 (stereo not shown)
IC50: 100 to 500 nM
--
MOLECULE: O=c1cc(N2CCOCC2)cc(-c2cccc3c2Oc2ccc(NCc4cncc(-c5cccnc5)c4)cc2C3)[nH]1
IC50: 100 to 500 nM
--
MOLECULE: CNc1ncccc1CNc1ccc2c(c1)Sc1cccc(-c3cc(N4CCOCC4)cc(=O)[nH]3)c1O2
IC50: 100 to 500 nM

====

MEASUREMENT TARGET: ATM (Homo sapiens, UniProt Q13315)
Construct: detecting phosphorylation of Chk2 in a human non-small cell lung cancer cell line NCI-H460 (ATCC company); host or cells: NCI-H460 human non-small cell lung cancer cells
ASSAY PROCEDURE: ATM inhibition test (phosphorylation of Chk2 generated by ionizing radiation, AlphaScreen SureFire)
Assay type: cell-based
DETAILS: phosphorylated Chk2 in NCI-H460 cells, ionizing radiation 8Gy, 1 hour after test compound treatment; read-out: ATM inhibitory activity
pIC50: −log10 of the molar value.

COMPOUND: N#Cc1ccc(CNc2ccc3c(c2)Cc2cccc(-c4cc(N5CCOCC5)cc(=O)[nH]4)c2O3)s1
pIC50: > 7.00

COMPOUND: Cc1cccc(C(CCN(C)C)Nc2ccc3c(c2)Sc2cccc(-c4cc(N5CCOCC5)cc(=O)[nH]4)c2S3)n1 (single isomer, unassigned) [Example 1-22-11-2]
pIC50: > 7.00

COMPOUND: CC(C)Oc1ccc(CCN2CCC(Nc3ccc4c(c3)Cc3cccc(-c5cc(N6CCOCC6)cc(=O)[nH]5)c3O4)CC2)cc1
pIC50: 6.30 to 7.00

COMPOUND: O=c1cc(N2CCOCC2)cc(-c2cccc3c2Sc2ccc(NC(CN4CCCCC4)CN4CCOCC4)cc2S3)[nH]1 (centres unmarked)
pIC50: 6.30 to 7.00

COMPOUND: COc1cncc(CNc2ccc3c(c2)Cc2ccnc(-c4cc(N5CCOCC5)cc(=O)[nH]4)c2O3)c1
pIC50: 6.30 to 7.00

COMPOUND: Cc1cc(CNc2ccc3c(c2)Cc2cccc(-c4cc(N5CCOCC5)cc(=O)[nH]4)c2O3)ccn1
pIC50: > 7.00

COMPOUND: Cc1cccc(C(Nc2ccc3c(c2)Sc2cccc(-c4cc(N5CCOCC5)cc(=O)[nH]4)c2S3)C2CCCN(C)C2)n1 (single isomer, unassigned) [Example 1-22-5]
pIC50: > 7.00

COMPOUND: COCC(CN1CCOCC1)Nc1ccc2c(c1)Sc1cccc(-c3cc(N4CCOCC4)cc(=O)[nH]3)c1S2 (single isomer, unassigned) [Example 1-17-1-3]
pIC50: 6.30 to 7.00

COMPOUND: O=c1cc(N2CCOCC2)cc(-c2cccc3c2Sc2ccc(NC4CCCN(C5CCCCC5)C4)cc2S3)[nH]1 (centres unmarked)
pIC50: 6.30 to 7.00

COMPOUND: COCCN(C)CCC(Nc1ccc2c(c1)Sc1cccc(-c3cc(N4CCOCC4)cc(=O)[nH]3)c1S2)c1ccc(C)cn1 (single isomer, unassigned)
pIC50: > 7.00

COMPOUND: O=c1cc(N2CCOCC2)cc(-c2nccc3c2Oc2ccc(NCc4cncc(Cl)c4)cc2C3)[nH]1
pIC50: 6.30 to 7.00

COMPOUND: CC(Nc1ccc2c(c1)Sc1cccc(-c3cc(N4CCOCC4)cc(=O)[nH]3)c1S2)c1nccc(C(F)F)n1 (centres unmarked)
pIC50: > 7.00

COMPOUND: O=c1cc(N2CCOCC2)cc(-c2cccc3c2Oc2ccc(NC4CCN(CCC5CCCCC5)CC4)cc2C3)[nH]1
pIC50: 5.70 to 6.30

COMPOUND: CC(CCN1CCCCC1)Nc1ccc2c(c1)Sc1cccc(-c3cc(N4CCOCC4)cc(=O)[nH]3)c1S2 (centres unmarked)
pIC50: 6.30 to 7.00

COMPOUND: O=c1cc(N2CCOCC2)cc(-c2cccc3c2Oc2ccc(NCc4cncc(Cl)c4)cc2S3)[nH]1
pIC50: 6.30 to 7.00

COMPOUND: CNCC(Nc1ccc2c(c1)Sc1cccc(-c3cc(N4CCOCC4)cc(=O)[nH]3)c1S2)c1cccc(C)n1 (single isomer, unassigned) [Example 1-19-4-2]
pIC50: 5.70 to 6.30

COMPOUND: Cc1cnc(C(CCN2CCOCC2)Nc2ccc3c(c2)Sc2cccc(-c4cc(N5CCOCC5)cc(=O)[nH]4)c2S3)cn1 (centres unmarked)
pIC50: > 7.00

COMPOUND: CC(Nc1ccc2c(c1)Cc1cccc(-c3cc(N4CCOCC4)cc(=O)[nH]3)c1O2)c1cc(Cl)ncn1 (centres unmarked)
pIC50: 6.30 to 7.00

COMPOUND: CCCCN1CCCC(Nc2ccc3c(c2)Cc2cccc(-c4cc(N5CCOCC5)cc(=O)[nH]4)c2O3)C1 (centres unmarked)
pIC50: 6.30 to 7.00

COMPOUND: Cc1cncc(C(C)Nc2ccc3c(c2)Cc2cccc(-c4cc(N5CCOCC5)cc(=O)[nH]4)c2O3)n1 (centres unmarked)
pIC50: 6.30 to 7.00

COMPOUND: CC(Nc1ccc2c(c1)Cc1cccc(-c3cc(N4CCOCC4)cc(=O)[nH]3)c1O2)c1cccnc1 (single isomer, unassigned) [Example 2-36-2]
pIC50: 6.30 to 7.00

COMPOUND: O=c1cc(N2CCOCC2)cc(-c2cccc3c2Oc2ccc(NCc4cnc5ccccc5c4)cc2S3)[nH]1
pIC50: > 7.00

COMPOUND: Cc1ccc(C(Nc2ccc3c(c2)Cc2cccc(-c4cc(N5CCOCC5)cc(=O)[nH]4)c2O3)[C@H]2CN(C)CCO2)nc1 (some centres unmarked)
pIC50: > 7.00

COMPOUND: O=c1cc(N2CCOCC2)cc(-c2nccc3c2Oc2ccc(NCc4cc(C5CC5)ccn4)cc2C3)[nH]1
pIC50: 6.30 to 7.00

COMPOUND: O=c1cc(N2CCOCC2)cc(-c2cc(F)cc3c2Oc2ccc(NCc4cccc(Cl)n4)cc2C3)[nH]1
pIC50: 6.30 to 7.00

COMPOUND: COCCNCC(Nc1ccc2c(c1)Sc1cccc(-c3cc(N4CCOCC4)cc(=O)[nH]3)c1S2)c1cccc(C)n1 (centres unmarked)
pIC50: 6.30 to 7.00
